- EXPERIMENTAL_TARGET: STK24 (MST3) (Homo sapiens (Human))
- Sequence (Q9Y6E0 whole entry): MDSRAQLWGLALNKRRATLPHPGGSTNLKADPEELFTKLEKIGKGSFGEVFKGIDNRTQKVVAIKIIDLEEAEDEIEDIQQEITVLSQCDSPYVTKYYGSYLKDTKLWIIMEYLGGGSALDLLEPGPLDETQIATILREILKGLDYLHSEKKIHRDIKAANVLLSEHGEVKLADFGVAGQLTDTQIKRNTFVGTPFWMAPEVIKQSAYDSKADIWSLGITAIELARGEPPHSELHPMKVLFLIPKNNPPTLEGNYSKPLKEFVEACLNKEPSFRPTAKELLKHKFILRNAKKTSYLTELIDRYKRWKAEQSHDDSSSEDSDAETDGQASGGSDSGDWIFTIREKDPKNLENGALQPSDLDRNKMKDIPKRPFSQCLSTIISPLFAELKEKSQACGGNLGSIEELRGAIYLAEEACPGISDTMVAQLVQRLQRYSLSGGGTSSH
pIC50: −log10 of the molar value.
# maps each entry to its pIC50
REPORTED_METRIC: pIC50

> print(dat)
                                   molecule  reported.metric      reported
1  Nc1ncc(-c2cnccc2F)cc1-c1ccc2c(c1)CCNC2=O [Compound I-5]            pIC50        < 6.05
2  Nc1ncc(-c2cccc(S(=O)(=O)NC3CC3)c2)cc1-c1ccc2c(c1)CCNC2=O [Compound I-12]            pIC50  6.05 to 6.70
3  Nc1ncc(-c2cccc([N+](=O)[O-])c2F)cc1-c1ccc2c(c1)CCNC2=O [Compound I-9]            pIC50        < 6.05
4  Nc1ncc(-c2ccc(NS(=O)(=O)C3CC3)cc2F)cc1-c1ccc2c(c1)CCNC2=O [Compound I-51]            pIC50  6.70 to 7.40
5  Nc1ncc(-c2cc([N+](=O)[O-])ccc2F)cc1-c1ccc2c(c1)CCNC2=O [Compound I-1]            pIC50        < 6.05
6  Nc1ncc(-c2ccc(NS(=O)(=O)C3CC3)cc2OC2CCCCC2)cc1-c1ccc2c(c1)CCNC2=O [Compound I-65]            pIC50        < 6.05
7  Nc1ncc(-c2cccc3ncsc23)cc1-c1ccc2c(c1)CCNC2=O [Compound I-13]            pIC50        < 6.05
8  Nc1ncc(-c2cc([N+](=O)[O-])ccc2Cl)cc1-c1ccc2c(c1)CCNC2=O [Compound I-4]            pIC50        < 6.05

Attribution: patent US10710978B2
